# System: K4 kissing-loop RNA reporter;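 note: bound reporter read as fluorescence of individual clusters on recovered sequencing chips by microscopy, with normalized cluster intensities fitted with a binding model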
# Assay Procedure: apparent KD of K4 kissing-loop reporter; higher = weaker reporter binding
# Particulars: Eterna round: R107; input ligand: theophylline 20 uM
Entries and their apparent KD of K4 kissing-loop reporter values follow.
The answer is to be given in nM; state only the numeric part.

// solved cases for apparent KD of K4 kissing-loop reporter follow
- Ordered Residues: "UGGAGUUGACGAAAAGUCAACUCCCGAGAAGGAGCGGACGAAAGUCCAGGUAGGUCGCUCACUACCAGUGAUGUUGGUACUAAAA"
  apparent KD of K4 kissing-loop reporter [nM]: 135
- Ordered Residues: "UAUCAGAUUACUGAUACCAGUCUAAAGACAGUGAUGUUGUCUGAUCGACCACGAUCCAAGGACCCUUGGCAGCAGUGUACUAUUC [#30 K4 Theophylline B Same State]"
  apparent KD of K4 kissing-loop reporter [nM]: 205
- Ordered Residues: "AUUCAUGAGUGAUGUUCAUCGGCAGGAGAUACCAGCGAGUUAACCCGCCCUUGGCAGCUCAAGUAUAGGGACUCUGGCAUCGCCU [theeternabot_exclusion_KL_Theo_A_18]"
  apparent KD of K4 kissing-loop reporter [nM]: 405

Incoming: Requested field: apparent KD of K4 kissing-loop reporter. Item: AGGAUCACGUCAGUGAUGUUGACAAGAGAUACCAGAGACGAAAGUCUCCCUUGGCAGCUCAUCGUGAUCCGUGACAAAGGUCACA [Omei KL hio A SS C v3]
Outgoing: 155

Incoming: # lookup: apparent KD of K4 kissing-loop reporter of AGCGAUGUUUUCUCUAGGAGUGAUGUUUUUCGAGGACCGGUACGGCCGCCACUCGGACGACGAGUGUGGUAGUGGGCUGUUGACU [ffmullin]
Outgoing: 231

Incoming: Given UAUAUAGUGAUGUUAUAUAUACAUUCGGAAGGAGCGUGGUAAAACACAGGUAGGUCGCUGAAAUAAUUAAAAUAAUUUUCUUUUU [AstrosSSArgA#1] , state its recorded apparent KD of K4 kissing-loop reporter.
Outgoing: 239

Incoming: I have this sequence here, GCAGUCAAUCGACCACGAAAGUGGAUGGAUACCAGAGUCGAAAGACUCCCUUGGCAGCCAGUGAUGUUGGAAGACUGCAAUAAAA [#SwitchBubble 16 #K4Late] , and I need its recorded apparent KD of K4 kissing-loop reporter.
Outgoing: 479
